Give measured Emax for each item. Keep answers brief.
# System: Human TREM2 (Homo sapiens)
# Construct: expressed in transfected cells
# Sequence (Q9NZC2 19-230): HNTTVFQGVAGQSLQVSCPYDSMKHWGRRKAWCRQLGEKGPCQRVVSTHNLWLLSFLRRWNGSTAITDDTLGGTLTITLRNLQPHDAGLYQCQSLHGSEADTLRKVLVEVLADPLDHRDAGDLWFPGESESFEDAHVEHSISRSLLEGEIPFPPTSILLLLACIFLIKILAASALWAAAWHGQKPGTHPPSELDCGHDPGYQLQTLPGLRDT
# Sequence (O43914 22-113 partner): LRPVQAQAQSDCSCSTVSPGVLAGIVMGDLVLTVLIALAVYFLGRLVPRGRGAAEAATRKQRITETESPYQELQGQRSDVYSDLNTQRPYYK
# Assay Explanation: Human TREM2 activity: cellular phosphorylation of Syk (AlphaLISA SureFire Ultra p-SYK) in HEK293/DAP12+TREM2 stable cell line
# Format: cell-based
# Measurement Context: HEK293; maximal response relative to reference agonist example 1B (remaining examples); read-out: Emax
Counter-ions that a name gives are not always drawn.

- Cc1nc2c(C3CCC(F)(F)CC3)nc(N3CCOC(c4cnn(C)c4)C3)nc2c(=O)n1C (stereo not shown) [Example 11]: 75 to 110%
- Cc1nc2c(-c3ccc(C(F)(F)F)nc3)nc(N3CCO[C@@H](c4cnn(C)c4)C3)nc2c(=O)n1C (single isomer, unassigned) [Example 28B]: 75 to 110%
- Cc1nc2c(-c3ccc(Cl)cc3F)nc(N3C[C@H](c4cnn(C)c4)OC4(CC4)C3)c(F)c2c(=O)n1C (single isomer, unassigned) [Example 173B]: < 75%

Go through the items and report each one's Emax.
1. Cc1nc2c(-c3ccc(Cl)cc3F)nc(N3C[C@@H](c4cnn(C)c4)OC4(CC4)C3)c(F)c2c(=O)n1C (single isomer, unassigned) [Example 173A]
2. Cc1cc([C@H]2CN(c3nc(-c4ccc(C(F)(F)F)cc4F)c4nc(C)n(C)c(=O)c4n3)C[C@@H](C)O2)ccn1 (single isomer, unassigned) [Example 179B]
3. Cc1nc2c(-c3ccc(Cl)cc3F)nc(N3C[C@H](c4cnn(C5CC5)c4)OC(C)(C)C3)nc2c(=O)n1C (single isomer, unassigned) [Example 110B]
4. Cc1nc2c(-c3cc(F)c(F)cc3F)nc(N3C[C@H](c4cnn(C)c4)OC(C)(C)C3)cc2c(=O)n1C (single isomer, unassigned) [Example 150B]
5. C[C@H]1CN(c2cc3c(=O)n(C)c(C(F)(F)F)nc3c(-c3ccc(F)cc3F)n2)C[C@@H](c2cnn(C3CC3)c2)O1 (single isomer, unassigned) [Example 193A]
6. Cc1cc([C@@H]2CN(c3nc(-c4ccc(Cl)cc4F)c4nc(C)n(C)c(=O)c4n3)C[C@H](C)O2)ccn1 (single isomer, unassigned) [Example 176A]
7. COc1ccc(Cn2c(C)nc3c(-c4ccc(Cl)cc4F)nc(N4CCOC(c5cnn(C)c5)C4)nc3c2=O)cc1 (stereo not shown) [Example 59]

## Result
1: < 75%; 2: 75 to 110%; 3: < 75%; 4: < 75%; 5: 75 to 110%; 6: 75 to 110%; 7: 75 to 110%

Go through the items and report each one's Emax.
1. Cc1nc2c(-c3ccc(Cl)cc3F)nc([C@@H]3C[C@H]3c3cnn(C)c3)cc2c(=O)n1C (single isomer, unassigned) [Example 148B]
2. Cc1cc([C@H]2CN(c3cc4c(=O)n(C)c(C)nc4c(-c4ccc(Cl)cc4F)n3)CCO2)ccn1 (single isomer, unassigned) [Example 135B]
3. Cc1cc([C@@H]2CN(c3nc(-c4ccc(C(F)(F)F)cc4F)c4nc(C)n(C)c(=O)c4n3)CC(C)(C)O2)ccn1 (single isomer, unassigned) [Example 124A]
4. Cc1nc2c(-c3ccc(Cl)cc3F)nc(N3CCOC(c4cc[nH]n4)C3)nc2c(=O)n1C (stereo not shown) [Example 47]
5. Cc1nc2c(C3CC4(C3)CC(F)(F)C4)nc(N3CCOC(c4cnn(C)c4)C3)nc2c(=O)n1C (stereo not shown) [Example 72]
6. Cc1cc([C@H]2CN(c3cc4c(=O)n(C)c(C)nc4c(-c4ccc(C(F)(F)F)nc4)n3)CC(C)(C)O2)ccn1 (single isomer, unassigned) [Example 161B]

## Result
["< 75%", "75 to 110%", "75 to 110%", "< 75%", "75 to 110%", "75 to 110%"]

Go through the items and report each one's Emax.
1. Cc1nc2c(-c3ccc(Cl)cc3F)nc(N3CCOC(c4cnn(C)n4)C3)nc2c(=O)n1C (stereo not shown) [Example 91]
2. Cc1cc([C@H]2CN(c3nc(-c4ccc(F)cc4F)c4nc(C(F)(F)F)n(C)c(=O)c4n3)C[C@@H](C)O2)ccn1 (single isomer, unassigned) [Example 191B]
3. Cc1nc2c(-c3ccc(Cl)cc3F)nc(N3CCOC(c4cnn(C5CNC5)c4)C3)nc2c(=O)n1C (stereo not shown) [Example 41, hydrochloride salt]
4. Cn1c(C(F)(F)F)nc2c(-c3cc(F)c(F)cc3F)nc([C@@H]3CCO[C@H](c4cnn(C5CC5)c4)C3)nc2c1=O (single isomer, unassigned) [Example 186A]
5. Cn1c(C(F)(F)F)nc2c(-c3cc(F)c(F)cc3F)nc([C@H]3CCO[C@@H](c4cnn(C5CC5)c4)C3)nc2c1=O (single isomer, unassigned) [Example 186B]
6. Cc1nc2c(-c3ccc(C(F)(F)F)cc3F)nc([C@H]3CCO[C@@H](c4cnn(C)c4)C3)nc2c(=O)n1C (single isomer, unassigned) [Example 66]

## Result
1. 75 to 110%
2. 75 to 110%
3. 75 to 110%
4. 75 to 110%
5. < 75%
6. 75 to 110%
